assay system: cGMP-specific 3',5'-cyclic phosphodiesterase (Homo sapiens)
test name: Inhibitory activity against Phosphodiesterase 5 (PDE5) was evaluated
Consider the following compounds; for each one, report its pKi.
Interpret pKi as the negative base-10 log of the concentration measured in mol/L.

## Input Fill blank: measured pKi of the compound O=C(c1ccc(-c2cccc(CO)c2)o1)N1Cc2c(nc3ccccc3c2O)C1c1ccc2c(c1)OCO2 (centres undefined) is ____.
## Output 9.33

## Input Fill blank: measured pKi of the compound N#Cc1ccc(-c2ccc(C(=O)N3Cc4c(nc5ccccc5c4O)C3c3ccc4c(c3)OCO4)o2)cc1 (centres undefined) is ____.
## Output 8.57

## Input Fill blank: measured pKi of the compound COC(=O)c1ccc(-c2ccc(C(=O)N3Cc4c(nc5ccccc5c4O)C3c3ccc4c(c3)OCO4)o2)cc1 (centres undefined) is ____.
## Output 9.00

## Input Fill blank: measured pKi of the compound O=C(c1cc2ccc(O)cc2o1)N1Cc2c(nc3ccccc3c2O)C1c1ccc2c(c1)OCO2 (centres undefined) is ____.
## Output 9.46
